Measured cell viability accompanies every entry in the list below.
Tested on: NCC-PMP1-C1
Experiment: cell viability relative to DMSO control; higher = less growth inhibition
Conditions: 10 µM; 72 h
Where a name gives a salt, the structure may show the parent alone.
Supply the numeric figure in %, leaving out any unit text.

Consider the worked cases shown below.
{"COMPOUND": "Nc1ccn([C@@H]2O[C@H](CO)[C@@H](O)[C@@H]2O)c(=O)n1 [Cytosine β-D-arabinofuranoside hydrochloride]", "OBSERVED": 74.2}
{"COMPOUND": "COc1ccc(C2=N[C@@H](c3ccc(Cl)cc3)[C@@H](c3ccc(Cl)cc3)N2C(=O)N2CCNC(=O)C2)c(OC(C)C)c1 [Nutlin-3]", "OBSERVED": 74.1}
{"COMPOUND": "Cc1cn(-c2cc(NC(=O)c3ccc(C)c(Nc4nccc(-c5cccnc5)n4)c3)cc(C(F)(F)F)c2)cn1 [Nilotinib (AMN-107)]", "OBSERVED": 70.1}

Input: May I ask what cell viability has been recorded for CN(CCOc1ccc(CC2SC(=O)NC2=O)cc1)c1ccccn1 (stereo not given) [Rosiglitazone] ?
Output: 101

Input: Which measured cell viability value corresponds to CN1c2cc(O)c(N=NC(N)=O)cc2CC1S(=O)(=O)O (stereo not given) [Carbazochrome sodium sulfonate (AC-17)] ?
Output: 90.4

Input: // query cell viability value for entry Nc1nc2[nH]cc(CCc3ccc(C(=O)N[C@@H](CCC(=O)O)C(=O)O)cc3)c2c(=O)[nH]1 [Pemetrexed Disodium Hydrate]
Output: 101

Input: I have this compound here, CN(Cc1cnc2nc(N)nc(N)c2n1)c1ccc(C(=O)N[C@@H](CCC(=O)O)C(=O)O)cc1 [Methotrexate] , and I need its recorded cell viability.
Output: 110

Input: What does the record list as cell viability for FC(F)(F)c1ccc(CNc2ccc(Cc3c[nH]c4ncc(Cl)cc34)cn2)cn1 [Pexidartinib (PLX3397)] ?
Output: 63.2

Input: For C/C=C1\NC(=O)[C@H]2CSSCC/C=C/[C@H](CC(=O)N[C@H](C(C)C)C(=O)N2)OC(=O)[C@H](C(C)C)NC1=O [Romidepsin (FK228, Depsipeptide)] , what is its reported cell viability?
Output: 22.2

Input: What value of measured cell viability is listed for Cc1ccc(NC(=O)c2ccc(CN3CCN(C)CC3)cc2)cc1Nc1nccc(-c2cccnc2)n1 [Imatinib Mesylate (STI571)] ?
Output: 75.2

Input: Form field: reported cell viability of C#Cc1cccc(Nc2ncnc3cc(OCCOC)c(OCCO)cc23)c1
Output: 49.1

Input: Fill in: cell viability of O=c1c(-c2ccc(O)cc2)coc2cc(O)cc(O)c12 [Genistein] is ___
Output: 100

Input: # get_value(readout='cell viability', item= CCC(C)n1ncn(-c2ccc(N3CCN(c4ccc(OCC5COC(Cn6cncn6)(c6ccc(Cl)cc6Cl)O5)cc4)CC3)cc2)c1=O (stereo not given) [Itraconazole] )
Output: 81.9

Input: # cell viability lookup, item COC(=O)C[C@](O)(CCCC(C)(C)O)C(=O)O[C@@H]1C(OC)=C[C@]23CCCN2CCc2cc4c(cc2[C@H]13)OCO4 [Homoharringtonine]
Output: -1.02

Input: // query cell viability value for entry COc1cc2c(cc1O)CC[C@@H]1[C@@H]2CC[C@]2(C)[C@@H](O)CC[C@@H]12 [2-Methoxyestradiol (2-MeOE2)]
Output: 98

---

Catalogue of cell viability values
Tested on: NCC-PMP1-C1
Assay: cell viability relative to DMSO control; higher = less growth inhibition
Details: 10 µM; 72 h
Structures can show the parent of a compound that is named as a salt.
Give the number; % is assumed, so skip it.

// known answers, use as guide
{"COMPOUND": "CNC(=O)c1cc(Oc2ccc(NC(=O)Nc3ccc(Cl)c(C(F)(F)F)c3)cc2)ccn1 [Sorafenib Tosylate]", "cell viability [%]": 148}
{"COMPOUND": "COc1cc(Nc2ncc(F)c(Nc3ccc4c(n3)N(COP(=O)(O)O)C(=O)C(C)(C)O4)n2)cc(OC)c1OC [Fostamatinib (R788)]", "cell viability [%]": 4.92}
{"COMPOUND": "O=[n+]1c(CBr)c(CBr)n([O-])c2ccccc21", "cell viability [%]": 112}
{"COMPOUND": "CCc1c2c(nc3ccc(OC(=O)N4CCC(N5CCCCC5)CC4)cc13)-c1cc3c(c(=O)n1C2)COC(=O)[C@]3(O)CC [Irinotecan HCl Trihydrate]", "cell viability [%]": 101}

# ---- query compound ----
Input: Reported cell viability for NCC-PMP1-C1, given COc1c2occc2cc2ccc(=O)oc12 ?
Output: 92.6
